Every entry's value here was drawn from paper PMC11347369.

# Tested on: M. abscessus ATCC 19977
We begin with a simple list: items and their reported Efflux Ratio.

Molecule: CN[C@@H]1[C@H](O)[C@H](NC)[C@H]2O[C@]3(O)[C@H](O[C@@H]2[C@H]1O)O[C@H](C)C[C@@]3(O)CNCc1ccc(F)cc1 [bAmSPC (5), reference compound]
Efflux Ratio: 16
//
Molecule: CCCCC1CC(O)(CNCc2ccc(F)cc2)C2(O)OC3C(NC)C(O)C(NC)C(O)C3OC2O1 (stereo not shown) [bAmTroSPC (6)]
Efflux Ratio: 1
//
Molecule: CN[C@@H]1[C@H](O)[C@H](NC)[C@H]2O[C@]3(O)[C@H](O[C@@H]2[C@H]1O)O[C@H](C)C[C@H]3NC(=O)Cc1ccccn1 [SPA (3), reference compound]
Efflux Ratio: 4
//
Molecule: CCCC[C@@H]1CC(=O)[C@]2(O)O[C@@H]3[C@@H](NC)[C@@H](O)[C@@H](NC)[C@H](O)[C@H]3O[C@@H]2O1 [TroSPC (2), trospectomycin, reference compound]
Efflux Ratio: 4
//
Molecule: CCCCC1CC(O)(CNCCc2ccc(F)cc2)C2(O)OC3C(NC)C(O)C(NC)C(O)C3OC2O1 (stereo not shown) [eAmTroSPC (8)]
Efflux Ratio: 1
//
Molecule: CN[C@@H]1[C@H](O)[C@H](NC)[C@H]2O[C@]3(O)[C@H](O[C@@H]2[C@H]1O)O[C@H](C)C[C@@]3(O)CNCCc1ccc(F)cc1 [eAmSPC (7), reference compound]
Efflux Ratio: 4
//
Molecule: CN[C@@H]1[C@H](O)[C@H](NC)[C@H]2O[C@@]3(O)C(=O)C[C@@H](C)O[C@H]3O[C@@H]2[C@H]1O [SPC (1), spectinomycin]
Efflux Ratio: 32
//
Molecule: CCCC[C@@H]1C[C@@H](N)[C@]2(O)O[C@@H]3[C@@H](NC)[C@@H](O)[C@@H](NC)[C@H](O)[C@H]3O[C@@H]2O1 [Amino TroSPC (11)]
Efflux Ratio: 1
//
Molecule: CCCC[C@@H]1C[C@@H](NC(=O)Cc2ccccn2)[C@]2(O)O[C@@H]3[C@@H](NC)[C@@H](O)[C@@H](NC)[C@H](O)[C@H]3O[C@@H]2O1 [TroSPA (4)]
Efflux Ratio: 4
//
Molecule: CCCCC1CC(O)(CN)C2(O)OC3C(NC)C(O)C(NC)C(O)C3OC2O1 (stereo not shown) [AmTroSPC (13)]
Efflux Ratio: 1

###

# System: E. coli K12 ∆tolC
# Test summary: microbe, parasite or virus in culture
# Format: cell-based
# Details: Escherichia coli, read-out: Minimum Inhibitory Concentration
MIC by entry:
Measurement type: MIC

Molecule: CCCC[C@@H]1C[C@@H](N)[C@]2(O)O[C@@H]3[C@@H](NC)[C@@H](O)[C@@H](NC)[C@H](O)[C@H]3O[C@@H]2O1
Measurement type: MIC
Value: 32 µg/mL
--
Molecule: CCCCC1CC(O)(CNCc2ccc(F)cc2)C2(O)OC3C(NC)C(O)C(NC)C(O)C3OC2O1 (stereo not shown)
Measurement type: MIC
Value: 4 to 8 µg/mL
--
Molecule: CCCCC1CC(O)(CNCCc2ccc(F)cc2)C2(O)OC3C(NC)C(O)C(NC)C(O)C3OC2O1 (stereo not shown)
Measurement type: MIC
Value: 4 to 8 µg/mL
--
Molecule: CCCC[C@@H]1C[C@@H](NC(=O)Cc2ccccn2)[C@]2(O)O[C@@H]3[C@@H](NC)[C@@H](O)[C@@H](NC)[C@H](O)[C@H]3O[C@@H]2O1
Measurement type: MIC
Value: 32 µg/mL
--
Molecule: CN[C@@H]1[C@H](O)[C@H](NC)[C@H]2O[C@@]3(O)C(=O)C[C@@H](C)O[C@H]3O[C@@H]2[C@H]1O
Measurement type: MIC
Value: 64 µg/mL
--
Molecule: CCCCC1CC(O)(CN)C2(O)OC3C(NC)C(O)C(NC)C(O)C3OC2O1 (stereo not shown)
Measurement type: MIC
Value: 32 µg/mL
--
Molecule: CCCC[C@@H]1CC(=O)[C@]2(O)O[C@@H]3[C@@H](NC)[C@@H](O)[C@@H](NC)[C@H](O)[C@H]3O[C@@H]2O1 [TroSPC (2), trospectomycin, reference compound]
Measurement type: MIC
Value: 16 µg/mL
